tgt: Stromelysin-1 (Homo sapiens)
Sequence (P08254 whole entry): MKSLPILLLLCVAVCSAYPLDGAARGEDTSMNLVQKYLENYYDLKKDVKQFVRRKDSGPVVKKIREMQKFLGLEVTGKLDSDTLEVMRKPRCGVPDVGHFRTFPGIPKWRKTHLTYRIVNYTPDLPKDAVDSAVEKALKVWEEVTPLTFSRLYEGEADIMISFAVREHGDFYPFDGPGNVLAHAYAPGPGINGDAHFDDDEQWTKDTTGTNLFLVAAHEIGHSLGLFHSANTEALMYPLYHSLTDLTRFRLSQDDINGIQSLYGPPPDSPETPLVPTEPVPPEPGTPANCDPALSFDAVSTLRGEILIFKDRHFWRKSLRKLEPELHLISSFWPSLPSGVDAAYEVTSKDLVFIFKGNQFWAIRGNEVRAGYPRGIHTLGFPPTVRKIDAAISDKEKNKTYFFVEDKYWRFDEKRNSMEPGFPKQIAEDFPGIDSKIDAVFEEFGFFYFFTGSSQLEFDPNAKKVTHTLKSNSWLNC
measured metric: Ki

Cc1cc(COc2ccc(C(=O)N[C@@H]3CCC[C@@H]3c3n[nH]c(=S)[nH]3)cc2)c2ccccc2n1 (relative stereo) ... > 4.5 µM

Ki on Stromelysin-1 (Homo sapiens) for C#CCN1CC[C@H](c2n[nH]c(=S)[nH]2)[C@H](NC(=O)c2ccc(OCc3cc(C)nc4ccccc34)cc2)C1 (relative stereo) is > 4.5 µM

Ki on Stromelysin-1 (Homo sapiens) for Cc1cc(COc2ccc(C(=O)N[C@@H]3CN(C(=O)OC(C)(C)C)CC[C@@H]3c3n[nH]c(=S)[nH]3)cc2)c2ccccc2n1 (relative stereo) is > 4.5 µM

Ki on Stromelysin-1 (Homo sapiens) for Cc1cc(COc2ccc(C(=O)N[C@@H]3CCNC[C@@H]3c3n[nH]c(=S)[nH]3)cc2)c2ccccc2n1 (relative stereo) is > 4.5 µM

Ki on Stromelysin-1 (Homo sapiens) for O=C(NCCCc1n[nH]c(=S)[nH]1)c1ccc(OCc2ccnc3ccccc23)cc1 is > 4.5 µM

* * *

// pIC50 lookup, one value per entry
tgt: Disintegrin and metalloproteinase domain-containing protein 17 (Sus scrofa)
Note: pIC50 values are expressed as the negative base-10 logarithm of concentration in M.

pIC50 on Disintegrin and metalloproteinase domain-containing protein 17 (Sus scrofa) for Cc1cc(COc2ccc(C(=O)N[C@@H]3CCOC[C@@H]3c3n[nH]c(=S)[nH]3)cc2)c2ccccc2n1 (relative stereo) is 8.09

pIC50 on Disintegrin and metalloproteinase domain-containing protein 17 (Sus scrofa) for CC(=O)N1C[C@H](c2n[nH]c(=S)[nH]2)[C@H](NC(=O)c2ccc(OCc3cc(C)nc4ccccc34)cc2)C1 (relative stereo) is 8.82

pIC50 on Disintegrin and metalloproteinase domain-containing protein 17 (Sus scrofa) for C#CCN1CC[C@H](c2n[nH]c(=S)[nH]2)[C@H](NC(=O)c2ccc(OCc3cc(C)nc4ccccc34)cc2)C1 (relative stereo) is 7.14

pIC50 on Disintegrin and metalloproteinase domain-containing protein 17 (Sus scrofa) for O=C(NCCCc1n[nH]c(=S)[nH]1)c1ccc(OCc2ccnc3ccccc23)cc1 is 6.53

* * *

tgt: Disintegrin and metalloproteinase domain-containing protein 17 (Sus scrofa)
measured metric: pIC50
Note: pIC50 values are expressed as the negative base-10 logarithm of concentration in M.

Observe how each entry below is paired with its result.
Cc1cc(COc2ccc(C(=O)N[C@@H]3CN(C(C)C)CC[C@@H]3c3n[nH]c(=S)[nH]3)cc2)c2ccccc2n1 (relative stereo) ... 7.51
Cc1cc(COc2ccc(C(=O)N[C@@H]3CCNC[C@@H]3c3n[nH]c(=S)[nH]3)cc2)c2ccccc2n1 (relative stereo) ... 7.37
Cc1cc(COc2ccc(C(=O)N[C@@H]3CN(S(C)(=O)=O)CC[C@@H]3c3n[nH]c(=S)[nH]3)cc2)c2ccccc2n1 (relative stereo) ... 7.55
Cc1cc(COc2ccc(C(=O)NC3(Cc4n[nH]c(=S)[nH]4)CCN(C(=O)OC(C)(C)C)CC3)cc2)c2ccccc2n1 ... 7.44
Cc1cc(COc2ccc(C(=O)N[C@@H]3CCC[C@@H]3c3n[nH]c(=S)[nH]3)cc2)c2ccccc2n1 (relative stereo) ... 7.39

Please fill in: pIC50 reported for Cc1cc(COc2ccc(C(=O)NC(C)(C)Cc3n[nH]c(=S)[nH]3)cc2)c2ccccc2n1 = 7.26

Please fill in: pIC50 reported for Cc1cc(COc2ccc(C(=O)NCCc3n[nH]c(=S)[nH]3)cc2)c2ccccc2n1 = 6.68

* * *

// pKi lookup, one value per entry
tgt: Collagenase 3 (Homo sapiens, UniProt P45452)
method notes: Inhibition of MMP13
pKi: −log10 of the molar value.

Cc1cc(COc2ccc(C(=O)N[C@@H]3CCNC[C@@H]3c3n[nH]c(=S)[nH]3)cc2)c2ccccc2n1 (relative stereo) ... < 5.30
Cc1cc(COc2ccc(C(=O)NC3(Cc4n[nH]c(=S)[nH]4)CCN(C(=O)OC(C)(C)C)CC3)cc2)c2ccccc2n1 ... < 5.30
CC(=O)N1CC[C@H](c2n[nH]c(=S)[nH]2)[C@H](NC(=O)c2ccc(OCc3cc(C)nc4ccccc34)cc2)C1 (relative stereo) ... 5.50
Cc1cc(COc2ccc(C(=O)N[C@@H]3CNC[C@@H]3c3n[nH]c(=S)[nH]3)cc2)c2ccccc2n1 (relative stereo) ... < 5.30
CCCN1C[C@H](c2n[nH]c(=S)[nH]2)[C@H](NC(=O)c2ccc(OCc3cc(C)nc4ccccc34)cc2)C1 (relative stereo) ... 5.61

pKi on Collagenase 3 (Homo sapiens, UniProt P45452) for Cc1cc(COc2ccc(C(=O)N[C@@H]3CCOC[C@@H]3c3n[nH]c(=S)[nH]3)cc2)c2ccccc2n1 (relative stereo) is < 5.30

pKi on Collagenase 3 (Homo sapiens, UniProt P45452) for Cc1cc(COc2ccc(C(=O)NC(C)(C)Cc3n[nH]c(=S)[nH]3)cc2)c2ccccc2n1 is < 5.30

pKi on Collagenase 3 (Homo sapiens, UniProt P45452) for O=C(NCCCc1n[nH]c(=S)[nH]1)c1ccc(OCc2ccnc3ccccc23)cc1 is < 5.30

pKi on Collagenase 3 (Homo sapiens, UniProt P45452) for Cc1cc(COc2ccc(C(=O)NC3(Cc4n[nH]c(=S)[nH]4)CCOCC3)cc2)c2ccccc2n1 is 6.12

pKi on Collagenase 3 (Homo sapiens, UniProt P45452) for CC(=O)N1C[C@H](c2n[nH]c(=S)[nH]2)[C@H](NC(=O)c2ccc(OCc3cc(C)nc4ccccc34)cc2)C1 (relative stereo) is < 5.30

pKi on Collagenase 3 (Homo sapiens, UniProt P45452) for Cc1cc(COc2ccc(C(=O)N[C@@H]3CNCC[C@@H]3c3n[nH]c(=S)[nH]3)cc2)c2ccccc2n1 (relative stereo) is < 5.30

pKi on Collagenase 3 (Homo sapiens, UniProt P45452) for Cc1cc(COc2ccc(C(=O)N[C@@H]3CCC[C@@H]3c3n[nH]c(=S)[nH]3)cc2)c2ccccc2n1 (relative stereo) is < 5.30

* * *

tgt: Disintegrin and metalloproteinase domain-containing protein 17 (Sus scrofa, UniProt O77636)
Sequence (O77636 whole entry, the tested form may be a part): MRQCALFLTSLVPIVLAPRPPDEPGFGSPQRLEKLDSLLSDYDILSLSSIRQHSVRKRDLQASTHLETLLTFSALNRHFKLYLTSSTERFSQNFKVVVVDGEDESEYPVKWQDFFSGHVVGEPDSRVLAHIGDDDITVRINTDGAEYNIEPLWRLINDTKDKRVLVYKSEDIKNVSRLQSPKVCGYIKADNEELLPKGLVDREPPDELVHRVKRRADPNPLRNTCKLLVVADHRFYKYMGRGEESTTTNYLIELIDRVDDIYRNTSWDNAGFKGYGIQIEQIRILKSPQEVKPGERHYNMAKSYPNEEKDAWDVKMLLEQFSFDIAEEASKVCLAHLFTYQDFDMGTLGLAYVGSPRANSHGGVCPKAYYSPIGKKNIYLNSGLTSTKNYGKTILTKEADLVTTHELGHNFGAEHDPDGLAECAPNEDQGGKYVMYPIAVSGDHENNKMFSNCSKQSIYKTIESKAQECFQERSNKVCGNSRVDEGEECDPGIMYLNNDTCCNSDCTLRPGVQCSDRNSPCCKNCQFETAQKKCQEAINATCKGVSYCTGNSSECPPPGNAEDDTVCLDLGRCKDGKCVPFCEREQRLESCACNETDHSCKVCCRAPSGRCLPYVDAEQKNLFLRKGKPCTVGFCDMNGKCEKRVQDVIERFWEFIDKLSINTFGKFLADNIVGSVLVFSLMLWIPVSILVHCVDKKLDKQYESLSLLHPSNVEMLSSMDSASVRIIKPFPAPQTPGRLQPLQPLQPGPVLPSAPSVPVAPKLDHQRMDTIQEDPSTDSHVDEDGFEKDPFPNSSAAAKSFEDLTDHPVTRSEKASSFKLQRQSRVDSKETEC
pIC50: −log10 of the molar value.
The label depends only on pIC50: 1 if it is at least 8, -1 if it is smaller.

Here's what some known entries look like.
CC(=O)N1CC[C@H](c2n[nH]c(=S)[nH]2)[C@H](NC(=O)c2ccc(OCc3cc(C)nc4ccccc34)cc2)C1 (relative stereo) ... 1
Cc1cc(COc2ccc(C(=O)NC3(Cc4n[nH]c(=S)[nH]4)CCOCC3)cc2)c2ccccc2n1 ... -1
Cc1cc(COc2ccc(C(=O)N[C@@H]3CNC[C@@H]3c3n[nH]c(=S)[nH]3)cc2)c2ccccc2n1 (relative stereo) ... -1

Query block: Assess whether reported pIC50 for Cc1cc(COc2ccc([C@]3(N)CCN([C@H](CC(C)C)c4n[nH]c(=S)[nH]4)C3=O)cc2)c2ccccc2n1 sits at 8 or higher.
Result block: -1

* * *

Protein target, amino acids: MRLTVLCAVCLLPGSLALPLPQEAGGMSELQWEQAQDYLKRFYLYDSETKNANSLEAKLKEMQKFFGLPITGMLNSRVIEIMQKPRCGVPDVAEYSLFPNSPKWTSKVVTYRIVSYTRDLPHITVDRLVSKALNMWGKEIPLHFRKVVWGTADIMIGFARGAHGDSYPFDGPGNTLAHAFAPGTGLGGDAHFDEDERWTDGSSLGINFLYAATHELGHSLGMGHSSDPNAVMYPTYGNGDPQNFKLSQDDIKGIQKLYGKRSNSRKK
pKi: −log10 of the molar value.
// pKi lookup, one value per entry

Observe how each entry below is paired with its result.
C#CCN1CC[C@H](c2n[nH]c(=S)[nH]2)[C@H](NC(=O)c2ccc(OCc3cc(C)nc4ccccc34)cc2)C1 (relative stereo) ... < 5.20
Cc1cc(COc2ccc(C(=O)N[C@@H]3CN(S(C)(=O)=O)CC[C@@H]3c3n[nH]c(=S)[nH]3)cc2)c2ccccc2n1 (relative stereo) ... < 5.20

Please fill in: pKi reported for CC(=O)N1C[C@H](c2n[nH]c(=S)[nH]2)[C@H](NC(=O)c2ccc(OCc3cc(C)nc4ccccc34)cc2)C1 (relative stereo) = < 5.20

Please fill in: pKi reported for Cc1cc(COc2ccc(C(=O)NC3(Cc4n[nH]c(=S)[nH]4)CCN(C(=O)OC(C)(C)C)CC3)cc2)c2ccccc2n1 = < 5.20

* * *

tgt: Disintegrin and metalloproteinase domain-containing protein 17 (Sus scrofa)
measured metric: pIC50
Note: pIC50 values are expressed as the negative base-10 logarithm of concentration in M.

Observe how each entry below is paired with its result.
Cc1cc(COc2ccc(C(=O)N[C@@H]3CN(C(=O)OC(C)(C)C)CC[C@@H]3c3n[nH]c(=S)[nH]3)cc2)c2ccccc2n1 (relative stereo) ... 7.12
Cc1cc(COc2ccc(C(=O)N[C@@H]3CN(C)CC[C@@H]3c3n[nH]c(=S)[nH]3)cc2)c2ccccc2n1 (relative stereo) ... 7.80

# ---- query molecule ----
pIC50 on Disintegrin and metalloproteinase domain-containing protein 17 (Sus scrofa) for Cc1cc(COc2ccc(C(=O)N[C@@H]3CN(C(=O)OC(C)(C)C)C[C@@H]3c3n[nH]c(=S)[nH]3)cc2)c2ccccc2n1 (relative stereo) is 7.85
